The origin of these recorded values is patent US20040091855A1.

test-system: HR2 peptide having the amino acid sequence of SEQ ID NO:33 (HIV-1)
assay-name: surface plasmon resonance (Biacore protein chip assay)
measured-quantity: Kd (nM)
Numbers only, in nM.

[in] Entry QARQLVSGLVQQQNNILRALEATQHAVQALVWGVKQLQARVLALERYIK (modifications not checked) [synthetic peptide having the amino acid sequence of SEQ ID NO:35] : reported Kd = ?
[out] 21.8
